# Test Protocol: Plasma protein binding, mouse
# Assay type: in vitro ADME
# Experimental Conditions: pH 7.4
Property Name: fraction unbound at 6 h, 5 µM
Answer as a number with no unit attached.

// field: fraction unbound at 6 h, 5 µM; key: O=C(NCc1ccc(F)cn1)c1cc(Oc2cccnc2)c2sccc2n1 [Compound 28d] ; value = 0.062

====

# Test Protocol: Rat IV plasma/brain level
# Format: in vivo
# Experimental Conditions: male, Sprague-Dawley, brain and plasma, 0.2 mg/kg
Property Name: Kp at 0.25 h
Returns: the value as a bare number; no unit string appended.

For record Cc1ccc(Oc2cc(C(=O)NCc3ccc(F)cn3)nc3ccsc23)cn1 [Compound 17a] the listed Kp at 0.25 h is 0.83

====

# Test Protocol: Rat IV and PO pharmacokinetics
# Type: in vivo
# Experimental Conditions: male, Sprague-Dawley, plasma, po, 10 mg/kg
Property Name: Tmax

Input Cc1ccc(Oc2cc(C(=O)NCc3ccc(F)cn3)nc3ccsc23)cn1 [Compound 17a] . Output Tmax: 30 min

====

# Test Protocol: Rat IV and PO pharmacokinetics
# Assay type: in vivo
# Experimental Conditions: male, Sprague-Dawley, plasma, iv, 0.2 mg/kg
Property Name: clearance (mL/min/kg)
Could you give me the number in mL/min/kg? Just the number is fine.

The measured clearance associated with Cc1ccc(Oc2cc(C(=O)NCc3ccc(F)cn3)nc3ccsc23)cn1 [Compound 17a] reads 36.9

====

# Test Protocol: Rat IV plasma/brain level
# Type: in vivo
# Experimental Conditions: male, Sprague-Dawley, brain and plasma, 0.2 mg/kg
Property Name: Kp uu at 0.25 h
# respond with the number and nothing more

Kindly note the recorded Kp uu at 0.25 h for Cc1ccc(Oc2cc(C(=O)NCc3ccc(F)cn3)nc3ccsc23)cn1 [Compound 17a] , which is 0.52

====

Reported fraction unbound at 6 h, 5 µM is given for each of the following molecules.
# Test Protocol: Plasma protein binding, human
# Format: in vitro ADME
# Experimental Conditions: pH 7.4

>>> reading("Cc1ccc(Oc2cc(C(=O)NCc3ccc(F)cn3)nc3ccsc23)cn1 [Compound 17a]")
0.056

# ---- query molecule ----
Entry O=C(NCc1ccc(F)cn1)c1cc(Oc2cccnc2)c2sccc2n1 [Compound 28d] , fraction unbound at 6 h, 5 µM reported as 0.068

====

Form field: CLint scaled at 1 µM (one value per entry).
# Test Protocol: Intrinsic clearance in liver microsomes, human
# Assay type: in vitro ADME
# Experimental Conditions: pH 7.4
Output spec: scalar in mL/min/kg, unitless text.

>>> reading("Cc1ccc(Oc2cc(C(=O)NCc3ccc(F)cn3)nc3ccsc23)cn1 [Compound 17a]")
173

Kindly review the next compound as well.
Data point: O=C(NCc1ccc(F)cn1)c1cc(Oc2cccnc2)c2sccc2n1 [Compound 28d] ; CLint scaled at 1 µM = 47

====

The following compounds each carry a recorded Ki for rat mGlu5 (Rattus norvegicus).

>>> reading("O=C(NCc1ccc(F)cn1)c1cc(Oc2cccnc2)c2sccc2n1 [Compound 28d]")
"0.16 µM"

The reported Ki of the compound Cc1ccc(Oc2cc(C(=O)NCc3ccc(F)cn3)nc3ccsc23)cn1 [Compound 17a] was > 10 µM

====

# Test Protocol: Rat IV and PO pharmacokinetics
# Format: in vivo
# Experimental Conditions: male, Sprague-Dawley, plasma, iv, 0.2 mg/kg
Property Name: half-life (h)
Field format: number, assumed h, no unit text.

Summary for this compound, Cc1ccc(Oc2cc(C(=O)NCc3ccc(F)cn3)nc3ccsc23)cn1 [Compound 17a] : half-life is 1.37

Every entry's value here was drawn from paper PMC10114714.
